Test system: human cervical tumor cell line HeLa (ATCC CCL-2)
Experiment: SAC-Formation - Nocodazole-Induced Assay
Type: cell-based
Details: Homo sapiens, HeLa, 24 h, HeLa cells, nocodazole 0.1 μg/ml together with test compound, decrease of mitotic cells (phospho-histone H3 Ser10)
Recorded Metric: pIC50
In textbook form, pIC50 equals minus log to base ten of the concentration in mol/L.

- Molecule: "Cc1nsc(Nc2cnc3ccccc3n2)c1C(=O)Nc1cccc(C(=O)N2CCN(c3ccccc3F)CC2)c1 [Example 78]"
  Reported Result: 6.33

May I ask what pIC50 has been recorded for Cc1nsc(Nc2cnc(C(F)(F)F)cn2)c1C(=O)Nc1ccc(C(=O)N2CCN(CC(F)(F)F)CC2)cc1 [Example 260] ?
7.06

May I ask what pIC50 has been recorded for Cc1nsc(Nc2cnc3ccccc3n2)c1C(=O)Nc1ccc(OCCCNC(=O)OC(C)(C)C)nc1 [Example 42] ?
6.09

May I ask what pIC50 has been recorded for Cc1nsc(Nc2cnc3ccccc3n2)c1C(=O)Nc1cccc(C(=O)N(C)CCO)c1 [Example 59] ?
5.47

May I ask what pIC50 has been recorded for Cc1nsc(Nc2cnc(C(F)(F)F)cn2)c1C(=O)Nc1ccc(F)c(OCC2CCCN(CC(F)F)C2)c1 (stereo not shown) [Example 334] ?
7.33

May I ask what pIC50 has been recorded for Cc1nsc(Nc2cc(C#N)ccn2)c1C(=O)Nc1cccc(C(=O)OC(C)(C)C)c1 [Example 239] ?
6.29

May I ask what pIC50 has been recorded for Cc1nsc(Nc2cncc(C(F)(F)F)n2)c1C(=O)Nc1ccc(C(=O)NC2CCN(CC(F)F)CC2)cc1 [Example 225] ?
6.51

###

Target: CDK2/CycE (Homo sapiens, UniProt P24941)
Construct: GST
Assay: CDK2/CycE kinase assay (TR-FRET)
Details: avg, read-out: CDK2 avg (IC50 [mol/l])
Recorded Metric: IC50

- Test Smiles: "Cc1nsc(Nc2cnc(C(F)(F)F)cn2)c1C(=O)Nc1ccc(OCCN)c(F)c1"
  IC50: "> 20 µM"
- Test Smiles: "Cc1nsc(Nc2cncc(C(F)(F)F)n2)c1C(=O)Nc1ccc(OC2CCN(C(C)C)CC2)nc1"
  IC50: "> 20 µM"
- Test Smiles: "Cc1nsc(Nc2cnc(C(F)(F)F)cn2)c1C(=O)Nc1ccc(F)c(OCCCN(C)CCC(F)(F)F)c1"
  IC50: "≥ 20 µM"

Field: next molecule
May I ask what IC50 has been recorded for "Cc1nsc(Nc2cnc3ccccc3n2)c1C(=O)Nc1cccc(C(=O)N2CCCC2)c1" ?
≥ 20 µM

###

Test system: human cervical tumor cell line HeLa (ATCC CCL-2)
Experiment: SAC-Formation - Nocodazole-Induced Assay
Format: cell-based
Conditions: Homo sapiens, HeLa, 24 h, HeLa cells, nocodazole 0.1 μg/ml together with test compound, decrease of mitotic cells (phospho-histone H3 Ser10)
Listed compounds paired with reported IC50
Record the value in nM, omitting the unit from your answer.

Give IC50 (human cervical tumor cell line HeLa (ATCC CCL-2)) of the following compound: Cc1nsc(Nc2cnccn2)c1C(=O)Nc1ccc(C(=O)OC(C)(C)C)cc1 [Example 184]
88

###

Tested on: HeLa
Experiment: Proliferation assay (crystal violet), HeLa
Type: cell-based
Conditions: Homo sapiens, HeLa, 96 h, HeLa cells; 4 days incubation; crystal violet staining; read-out: IC50 inhibition of proliferation, HeLa
Listed compounds paired with reported pIC50
In textbook form, pIC50 equals minus log to base ten of the concentration in mol/L.

Guide cases for pIC50, answers given:
- Compound: "Cc1nsc(Nc2cnc(C(F)(F)F)cn2)c1C(=O)Nc1ccc(OCCN)c(F)c1 [Example 221]"
  Experimental System: "HeLa"
  Reported Result: 5.60
- Compound: "Cc1nsc(Nc2cnc3ccccc3n2)c1C(=O)Nc1cccc(C(=O)N[C@H](C(=O)O)[C@@H](C)O)c1 [Example 105]"
  Experimental System: "HeLa"
  Reported Result: 5.00
- Compound: "Cc1nsc(Nc2cnc3ccccc3n2)c1C(=O)Nc1cccc(NS(=O)(=O)C2CCN(CCC(F)(F)F)CC2)c1 [Example 283]"
  Experimental System: "HeLa"
  Reported Result: 5.08

May I ask what pIC50 has been recorded for Cc1nsc(Nc2cnc(C(F)(F)F)cn2)c1C(=O)Nc1ccc(O[C@@H]2CN(CC(F)F)C[C@@H]2F)nc1 [Example 411] ?
6.77

May I ask what pIC50 has been recorded for Cc1nsc(Nc2cnc3ccccc3n2)c1C(=O)Nc1ccc(C(=O)OC(C)(C)C)cc1 [Example 181] ?
6.01

May I ask what pIC50 has been recorded for Cc1nsc(Nc2cnc(C(F)(F)F)cn2)c1C(=O)Nc1ccc(O[C@H]2CCCN(CC(F)F)C2)nc1 [Example 388] ?
6.43

May I ask what pIC50 has been recorded for Cc1nsc(Nc2cnc(C(F)(F)F)cn2)c1C(=O)Nc1ccc(OC2CCN(CC(F)F)CC2)c(F)c1 [Example 164] ?
6.80

###

Listed compounds paired with reported IC50
Target: CDK2/CycE (Homo sapiens)
Construct: GST
Test: CDK2/CycE kinase assay (TR-FRET)
Details: avg, read-out: CDK2 avg (IC50 [mol/l])
Description: CDK2/CycE -inhibitory activity of compounds of the present invention was quantified employing the CDK2/CycE TR-FRET assay as described in the following paragraphs. […] The resulting mixture was incubated 1 h at 22° C. to allow the formation of complex between the phosphorylated biotinylated peptide and the detection reagents. Subsequently the amount of phosphorylated substrate was evaluated by measurement of the resonance energy transfer from the Eu-chelate to the streptavidine-XL. […]

Guide cases for IC50, answers given:
- Compound: "Cc1nsc(Nc2cnc(C(F)(F)F)cn2)c1C(=O)Nc1ccc(F)c(OCC2CCCN(CC(F)F)C2)c1 (stereo not shown) [Example 335]"
  Experimental System: "CDK2/CycE (Homo sapiens)"
  IC50: "≥ 20 µM"
- Compound: "Cc1nsc(Nc2cncc(C(F)(F)F)n2)c1C(=O)Nc1ccc(C(=O)OC(C)(C)C)cc1 [Example 193]"
  Experimental System: "CDK2/CycE (Homo sapiens)"
  IC50: "12 µM"
- Compound: "Cc1nsc(Nc2cc(C#N)ccn2)c1C(=O)Nc1cccc(C(=O)NC(C)C)c1 [Example 254]"
  Experimental System: "CDK2/CycE (Homo sapiens)"
  IC50: "> 20 µM"
- Compound: "CC(=O)Nc1cc(NC(=O)c2c(C)nsc2Nc2ccc(C#N)cn2)ccc1F [Example 152]"
  Experimental System: "CDK2/CycE (Homo sapiens)"
  IC50: "> 20 µM"
- Compound: "Cc1nsc(Nc2cnc3ccccc3n2)c1C(=O)Nc1cccc(C(=O)N[C@H](C(=O)O)[C@@H](C)O)c1 [Example 105]"
  Experimental System: "CDK2/CycE (Homo sapiens)"
  IC50: "≥ 20 µM"
- Compound: "Cc1nsc(Nc2cnc(C(F)(F)F)cn2)c1C(=O)Nc1ccc(OCC2CCN(CCC(F)(F)F)CC2(F)F)nc1 (stereo not shown) [Example 402]"
  Experimental System: "CDK2/CycE (Homo sapiens)"
  IC50: "> 20 µM"

Field: next compound
May I ask what IC50 has been recorded for Cc1nsc(Nc2cnc3ccccc3n2)c1C(=O)Nc1cccc(NS(=O)(=O)C2CN(CCC(F)(F)F)C2)c1 [Example 288] ?
> 20 µM

###

Listed compounds paired with reported IC50
System: HeLa
Test: Proliferation assay (crystal violet), HeLa
Format: cell-based
Details: Homo sapiens, HeLa, 96 h, HeLa cells; 4 days incubation; crystal violet staining; read-out: IC50 inhibition of proliferation, HeLa
Record the value in µM, omitting the unit from your answer.

- Compound: "Cc1nsc(Nc2cnc(C(F)(F)F)cn2)c1C(=O)Nc1ccc(F)c(OC[C@H]2CCN(CC(F)(F)F)C2)c1"
  Unit Tag: "µM"
  Reported Result: 0.49

Give IC50 (HeLa) of the following compound: Cc1nsc(Nc2cnc(C(F)(F)F)cn2)c1C(=O)Nc1ccc(F)c(OCC2CCCN(CCF)C2)c1 (stereo not shown)
0.39

Give IC50 (HeLa) of the following compound: "Cc1nsc(Nc2cnc3ccccc3n2)c1C(=O)Nc1cccc(C(=O)N[C@@H](CCC(N)=O)C(=O)OC(C)(C)C)c1"
9.8

Give IC50 (HeLa) of the following compound: "Cc1nsc(Nc2ccc(C#N)cn2)c1C(=O)Nc1ccc(OCCCNC(=O)OC(C)(C)C)nc1"
10

###

Molecular target: human kinase Mps-1 (Homo sapiens, UniProt P33981)
Construct: N-terminally GST-tagged human full length recombinant Mps-1 kinase; GST (N)
Sequence (P33981 1-857): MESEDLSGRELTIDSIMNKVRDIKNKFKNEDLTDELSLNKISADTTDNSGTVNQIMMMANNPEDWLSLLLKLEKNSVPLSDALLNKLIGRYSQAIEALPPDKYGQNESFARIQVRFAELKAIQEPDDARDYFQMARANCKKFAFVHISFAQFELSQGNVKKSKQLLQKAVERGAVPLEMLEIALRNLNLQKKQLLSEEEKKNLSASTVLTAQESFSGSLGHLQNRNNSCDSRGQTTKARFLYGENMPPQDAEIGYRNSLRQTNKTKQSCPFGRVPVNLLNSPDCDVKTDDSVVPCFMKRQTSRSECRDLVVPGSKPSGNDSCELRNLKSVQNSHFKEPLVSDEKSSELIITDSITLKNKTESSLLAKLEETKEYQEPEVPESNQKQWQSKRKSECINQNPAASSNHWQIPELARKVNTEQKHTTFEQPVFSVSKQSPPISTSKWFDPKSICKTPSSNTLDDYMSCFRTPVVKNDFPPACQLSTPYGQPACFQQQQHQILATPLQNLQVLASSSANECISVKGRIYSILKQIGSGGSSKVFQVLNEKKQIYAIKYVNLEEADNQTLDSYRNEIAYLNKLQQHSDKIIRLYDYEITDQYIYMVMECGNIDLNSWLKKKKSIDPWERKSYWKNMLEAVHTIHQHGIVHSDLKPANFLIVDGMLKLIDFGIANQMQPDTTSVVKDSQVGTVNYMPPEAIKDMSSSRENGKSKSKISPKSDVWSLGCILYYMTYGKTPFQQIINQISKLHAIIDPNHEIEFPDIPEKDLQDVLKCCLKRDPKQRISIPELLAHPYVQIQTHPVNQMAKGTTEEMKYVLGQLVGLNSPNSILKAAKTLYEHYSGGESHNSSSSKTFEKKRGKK
Test: Mps-1 kinase assay (TR-FRET)
Conditions: Mps-1 TR-FRET kinase assay; avg; read-out: Mps1 avg (IC50 [mol/l])
pIC50: −log10 of the molar value.
Listed molecules paired with reported pIC50

Guide cases for pIC50, answers given:
- Molecule: "CNC(=O)c1ccc(NC(=O)c2c(C)nsc2Nc2cnc3ccccc3n2)cc1F"
  Experimental System: "human kinase Mps-1 (Homo sapiens, UniProt P33981)"
  pIC50: "< 4.70"
- Molecule: "Cc1nsc(Nc2cnc3ccccc3n2)c1C(=O)Nc1ccc(C(=O)NCCN2CCCC(F)(F)C2)cc1"
  Experimental System: "human kinase Mps-1 (Homo sapiens, UniProt P33981)"
  pIC50: "< 4.70"
- Molecule: "Cc1nsc(Nc2cncc(C(F)(F)F)n2)c1C(=O)Nc1ccc(OCC2CCCN(C(=O)OC(C)(C)C)C2)nc1 (centres unmarked)"
  Experimental System: "human kinase Mps-1 (Homo sapiens, UniProt P33981)"
  pIC50: "< 4.70"
- Molecule: "Cc1nsc(Nc2cnc3ccccc3n2)c1C(=O)Nc1cccc(C(=O)N[C@H](C(=O)OC(C)(C)C)[C@@H](C)OC(C)(C)C)c1"
  Experimental System: "human kinase Mps-1 (Homo sapiens, UniProt P33981)"
  pIC50: "≤ 4.70"

Field: next molecule
May I ask what pIC50 has been recorded for "Cc1nsc(Nc2cc(C#N)ccn2)c1C(=O)Nc1ccc(C(=O)OC(C)(C)C)cc1" ?
< 4.70
